Record form. Attribute: pIC50. Fill in for each entry.
Test system: MCF-7, HepG2 and HCT-116 cancer cell lines
Test: MTT assay, statements over the three cancer cell lines together
Assay type: cell-based
Conditions: read-out: Anticancer activity IC50 against the three cancer cell lines
pIC50: −log10 of the molar value.

The examples below pair each entry with its known result.
Cn1c(=O)c(C(=O)NNC(=S)Nc2ccccc2)nc2ccccc21 [Compound 13] ... 5.54 to 6.09
Cn1c(=O)c(C(=O)NNC(=O)CC(=O)c2ccccc2)nc2ccccc21 [Compound 11] ... 5.54 to 6.09
Cn1c(=O)c(C(=O)N/N=C2\C(=O)Nc3ccccc32)nc2ccccc21 [Compound 4a] ... 5.34 to 5.49
Cn1c(=O)c(C(=O)N/N=C/c2ccc(Cl)cc2)nc2ccccc21 [Compound 2b] ... < 5.00

Proceed to the following item.
# input # get_value(readout= pIC50, system= MCF-7, HepG2 and HCT-116 cancer cell lines) for C/C(=N\NC(=O)c1nc2ccccc2n(C)c1=O)c1cc2ccccc2oc1=O [Compound 5]
# output 5.34 to 5.49

---

System: HepG2 cancer cell line
Assay: MTT assay, anticancer activity against HepG2
Format: cell-based
Conditions: Homo sapiens, HepG2, read-out: Cell growth inhibition (GI%)
The label depends only on inhibition at 10 µM: label 1 if it is at least 80%, label 0 if it is smaller.

Here's what some known entries look like.
Cn1c(=O)c(-c2n[nH]c(=S)o2)nc2ccccc21 ... label 0
Cn1c(=O)c(C(=O)N/N=C2\C(=O)Nc3ccccc32)nc2ccccc21 ... label 1

# input Record Cn1c(=O)c(C(=O)N/N=C/C(O)C(O)C(O)CO)nc2ccccc21 (centres unmarked) ; criterion: inhibition at 10 µM no lower than 80%. Met?
# output label 0

# input Could you tell me if the measured inhibition at 10 µM of CN1C(=O)/C(=N\NC(=O)c2nc3ccccc3n(C)c2=O)c2ccccc21 reaches 80% or more?
# output label 0

# input Would you say Cn1c(=O)c(C(=O)NN=Cc2ccccc2)nc2ccccc21 shows inhibition at 10 µM at minimum 80%?
# output label 1

# input Would you say Cn1c(=O)c(C(=O)NNC(=O)CC(=O)c2ccccc2)nc2ccccc21 shows inhibition at 10 µM at minimum 80%?
# output label 1

---

Please go through the items and note down their pIC50.
Tested on: HepG2 cancer cell line
Experiment: MTT assay, anticancer activity against HepG2
Type: cell-based
Details: Homo sapiens, HepG2, 48 h, read-out: Anticancer activity IC50
Numbers only, as −log10 of the molar value.

For each listed entry, give its pIC50.
1. Cn1c(=O)c(C(=O)N/N=C/c2ccc(Cl)cc2)nc2ccccc21
2. COc1cccc2c1C(=O)c1c(O)c3c(c(O)c1C2=O)C[C@@](O)(C(=O)CO)C[C@@H]3O[C@H]1C[C@H](N)[C@H](O)[C@H](C)O1 [Doxorubicin, doxorubicin, reference compound]
3. C/C(=N\NC(=O)c1nc2ccccc2n(C)c1=O)c1cc2ccccc2oc1=O

# output
[4.91, 5.92, 5.44]

# input Entry Cn1c(=O)c(C(=O)NNC(=S)Nc2ccccc2)nc2ccccc21 has what pIC50?
# output 6.02

---

Target: UniProt:P79208
Experiment: In vitro cyclooxygenase
Type: biochemical, ovine
Conditions: IC50 (COX-1)/IC50 (COX-2)
experimental_readout: SI (selectivity index)
Answers are plain numbers.

Example results:
Cn1c(=O)c(C(=O)NNC(=S)Nc2ccccc2)nc2ccccc21 ... 66.11
Cn1c(=O)c(C(=O)N/N=C2\C(=O)Nc3ccccc32)nc2ccccc21 ... 24.61
C/C(=N\NC(=O)c1nc2ccccc2n(C)c1=O)c1cc2ccccc2oc1=O ... 48.58

Field: SI (selectivity index). Fill in for each record below.
1. Cn1c(=O)c(C(=O)NNC(=O)CC(=O)c2ccccc2)nc2ccccc21
2. Cn1c(=O)c(C(=O)N/N=C/c2ccc(Cl)cc2)nc2ccccc21

# output
61.23
0.84

# input Quick one: SI (selectivity index) for CC(=O)C/C(=N/NC(=O)c1nc2ccccc2n(C)c1=O)c1ccccc1 ?
# output 17.52

---

Molecular target: COX-1 (Ovis aries, UniProt P05979)
Sequence (P05979 25-600): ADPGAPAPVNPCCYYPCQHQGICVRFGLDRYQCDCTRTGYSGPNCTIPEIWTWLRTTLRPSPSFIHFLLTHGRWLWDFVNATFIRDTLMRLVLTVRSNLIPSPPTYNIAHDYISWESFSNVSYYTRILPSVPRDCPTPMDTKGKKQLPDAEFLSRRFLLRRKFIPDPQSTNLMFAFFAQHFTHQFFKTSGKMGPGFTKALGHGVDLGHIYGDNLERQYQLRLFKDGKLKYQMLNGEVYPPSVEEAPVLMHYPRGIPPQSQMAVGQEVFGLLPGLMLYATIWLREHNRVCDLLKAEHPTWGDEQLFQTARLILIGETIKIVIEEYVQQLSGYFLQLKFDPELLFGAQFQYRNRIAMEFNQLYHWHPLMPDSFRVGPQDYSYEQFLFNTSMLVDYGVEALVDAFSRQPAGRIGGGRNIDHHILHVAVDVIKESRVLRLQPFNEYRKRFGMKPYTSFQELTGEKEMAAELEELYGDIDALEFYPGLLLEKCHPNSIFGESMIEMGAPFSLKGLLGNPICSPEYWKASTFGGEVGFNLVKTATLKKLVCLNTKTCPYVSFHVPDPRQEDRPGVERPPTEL
Assay: In vitro cyclooxygenase
Type: biochemical, ovine
# T = IC50 below 30 µM (exclusive); F = IC50 at/above 30 µM

Cn1c(=O)c(C(=O)N/N=C2\C(=O)Nc3ccccc32)nc2ccccc21 [Compound 4a] ... T
Cn1c(=O)c(C(=O)N/N=C/c2ccc(Cl)cc2)nc2ccccc21 [Compound 2b] ... T
Cn1c(=O)c(C(=O)NNC(=O)CC(=O)c2ccccc2)nc2ccccc21 [Compound 11] ... F
CC(=O)C/C(=N/NC(=O)c1nc2ccccc2n(C)c1=O)c1ccccc1 [Compound 9] ... F

Please examine the following record next.
# input Please check: IC50 for C/C(=N\NC(=O)c1nc2ccccc2n(C)c1=O)c1cc2ccccc2oc1=O [Compound 5] , strictly under 30 µM or not?
# output F

---

Molecular target: COX-2 (Ovis aries)
Sequence (P79208 17-603): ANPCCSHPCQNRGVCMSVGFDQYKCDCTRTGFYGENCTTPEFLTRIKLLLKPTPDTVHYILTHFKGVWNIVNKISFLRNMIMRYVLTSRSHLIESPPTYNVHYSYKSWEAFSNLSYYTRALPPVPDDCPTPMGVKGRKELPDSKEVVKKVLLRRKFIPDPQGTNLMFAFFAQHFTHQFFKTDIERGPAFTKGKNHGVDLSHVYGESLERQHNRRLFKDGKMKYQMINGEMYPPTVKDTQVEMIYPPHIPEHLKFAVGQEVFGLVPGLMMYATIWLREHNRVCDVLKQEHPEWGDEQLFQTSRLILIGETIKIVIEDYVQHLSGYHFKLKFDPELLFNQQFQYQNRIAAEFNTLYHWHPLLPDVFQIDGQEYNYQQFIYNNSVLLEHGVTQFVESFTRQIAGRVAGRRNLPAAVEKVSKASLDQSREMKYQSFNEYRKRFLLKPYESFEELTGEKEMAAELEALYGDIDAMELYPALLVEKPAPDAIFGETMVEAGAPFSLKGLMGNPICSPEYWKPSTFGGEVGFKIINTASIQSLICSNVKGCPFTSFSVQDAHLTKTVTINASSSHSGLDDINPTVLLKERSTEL
Could you please report measured pIC50 for the items listed next?
Give bare numbers, as −log10 of the molar value.

Record excerpt, results attached:
Cn1c(=O)c(C(=O)N/N=C/c2ccc(Cl)cc2)nc2ccccc21 [Compound 2b] ... 5.28
Cn1c(=O)c(C(=O)N/N=C2\C(=O)Nc3ccccc32)nc2ccccc21 [Compound 4a] ... 5.93
C/C(=N\NC(=O)c1nc2ccccc2n(C)c1=O)c1cc2ccccc2oc1=O [Compound 5] ... 6.08

Okay, here is my list. What is pIC50 for each of these?
1. Cn1c(=O)c(C(=O)NNC(=O)CC(=O)c2ccccc2)nc2ccccc21 [Compound 11]
2. CC(=O)C/C(=N/NC(=O)c1nc2ccccc2n(C)c1=O)c1ccccc1 [Compound 9]
3. Cn1c(=O)c(C(=O)NNC(=S)Nc2ccccc2)nc2ccccc21 [Compound 13]

# output
6.21
5.66
6.34

---

System: MCF-7 cancer cell line
Assay: MTT assay, anticancer activity against MCF-7
Format: cell-based
Details: Homo sapiens, MCF7, 48 h, read-out: Anticancer activity IC50
# condition met = IC50 below 3 µM (exclusive); condition not met = IC50 at/above 3 µM

Cn1c(=O)c(C(=O)N/N=C2\C(=O)Nc3ccccc32)nc2ccccc21 ... condition not met
CC(=O)C/C(=N/NC(=O)c1nc2ccccc2n(C)c1=O)c1ccccc1 ... condition not met
C/C(=N\NC(=O)c1nc2ccccc2n(C)c1=O)c1cc2ccccc2oc1=O ... condition not met

# input Answer whether the compound COc1cccc2c1C(=O)c1c(O)c3c(c(O)c1C2=O)C[C@@](O)(C(=O)CO)C[C@@H]3O[C@H]1C[C@H](N)[C@H](O)[C@H](C)O1 [Doxorubicin, doxorubicin, reference compound] has IC50 strictly less than 3 µM
# output condition met

# input Is the reported IC50 for Cn1c(=O)c(C(=O)NNC(=S)Nc2ccccc2)nc2ccccc21 strictly below 3 µM?
# output condition met

# input Consider the compound Cn1c(=O)c(C(=O)N/N=C/c2ccc(Cl)cc2)nc2ccccc21 . Is its IC50 strictly less than 3 µM?
# output condition not met
